# Experiment Notes: Cytotoxicity of didemnins (Table II)
# Format: cell-based
# Condition Summary: Dose 250 ng/mL
Measurement Kind: Inhibition (%)
Number in %, nothing else.

The compound identified as CC[C@H](C)[C@H]1NC(=O)[C@@H](NC(=O)[C@@H](CC(C)C)N(C)C(=O)[C@@H]2CCCN2C(=O)[C@H](C)OC(=O)[C@H](CCC(N)=O)NC(=O)OCc2ccccc2)[C@@H](C)OC(=O)[C@H](Cc2ccc(OC)cc2)N(C)C(=O)[C@@H]2CCCN2C(=O)[C@H](CC(C)C)NC(=O)[C@@H](C)C(=O)[C@H](C(C)C)OC(=O)C[C@@H]1OC(=O)[C@H](CCC(N)=O)NC(=O)OCc1ccccc1 [Cbz-Gln[Cbz-GlnIst^2]DB (162)] registered its Inhibition (%) at 99

----------
# Experiment Notes: Cytotoxicity of didemnins (Table II)
# Format: cell-based
# Condition Summary: Dose 250 ng/mL
Measurement Kind: Inhibition (%)
Note: unit % is implicit; provide only the numeric part.

* CC[C@H](C)[C@H]1NC(=O)[C@@H](NC(=O)[C@@H](CC(C)C)N(C)C(=O)[C@@H]2CCCN2C(=O)[C@H](C)OC(=O)[C@@H](N)CCC(N)=O)[C@@H](C)OC(=O)[C@H](Cc2ccc(OC)cc2)N(C)C(=O)[C@@H]2CCCN2C(=O)[C@H](CC(C)C)NC(=O)[C@@H](C)C(=O)[C@H](C(C)C)OC(=O)C[C@@H]1OC(=O)[C@@H](N)CCC(N)=O [Gln[GlnIst^2]-Didemnin B (160), Glutaminyl-glutaminyl-didemnin B] | 100

Field: next compound
Value of Inhibition (%) reported for the compound CC[C@H](C)[C@H]1NC(=O)[C@@H](NC(=O)[C@@H](CC(C)C)N(C)C(=O)[C@@H]2CCCN2C(=O)[C@H](C)OC(=O)[C@@H]2CCC(=O)N2C(=O)OCc2ccccc2)[C@@H](C)OC(=O)[C@H](Cc2ccc(OC)cc2)N(C)C(=O)[C@@H]2CCCN2C(=O)[C@H](CC(C)C)NC(=O)[C@@H](C)C(=O)[C@H](C(C)C)OC(=O)C[C@@H]1O is 100

----------
Measured Cytotoxocity by item
# Tested on: CV-1
# Experiment Notes: Cytotoxicity score in the HSV/CV-1 antiviral assay
# Condition Summary: 100 ng/mL, scale 0 (least toxic) to 16 (toxic)
Starred links: 1 amine or outer side, 2 acyl side, 3 side chain; linkers in the order of their positions; H or OH if unused. Positions of bridges follow the written chain, without caps; N, C: chain ends. Non-standard residues stand in square brackets, D forms with d. Residues, ends and D or L forms follow the SMILES beside them. *: point of attachment. X1 = CC[C@H](C)[C@@H](N[*:1])[C@@H](O)CC(=O)O[C@H](C(=O)[C@H](C)C(=O)[*:2])C(C)C; NMeY = CN[C@@H](Cc1ccc(O)cc1)C(=O)O; dNMeL = CN[C@H](CC(C)C)C(=O)O; Pyruvoyl = CC(=O)C(=O)*
// return a plain number; no unit text

* CC[C@H](C)[C@H]1NC(=O)[C@@H](NC(=O)[C@@H](CC(C)C)N(C)C(=O)[C@@H]2CCCN2C(=O)C(C)=O)[C@@H](C)OC(=O)[C@H](Cc2ccc(OC)cc2)N(C)C(=O)[C@@H]2CCCN2C(=O)[C@H](CC(C)C)NC(=O)[C@@H](C)C(=O)[C@H](C(C)C)OC(=O)C[C@@H]1O [Dehydrodidemnin B (6), Dehydrodidemnin B] (Pyruvoyl-P[dNMeL]T[X1]LP[NMeY](Me); ester 3-C) | 16
* CC[C@H](C)[C@H]1NC(=O)[C@@H](NC(=O)[C@@H](CC(C)C)N(C)C(=O)[C@@H]2CCCN2C(=O)[C@H](C)OC(=O)[C@@H]2CCC(=O)N2C(=O)OCc2ccccc2)[C@@H](C)OC(=O)[C@H](Cc2ccc(OC)cc2)N(C)C(=O)[C@@H]2CCCN2C(=O)[C@H](CC(C)C)NC(=O)[C@@H](C)C(=O)[C@H](C(C)C)OC(=O)C[C@@H]1O [Cbz-pGlu-Didemnin B (145)] | 0

We now examine a further compound.
CC[C@H](C)[C@H]1NC(=O)[C@@H](NC(=O)[C@@H](CC(C)C)N(C)C(=O)[C@@H]2CCCN2C(=O)[C@H](C)OC(=O)[C@H](CCC(N)=O)NC(=O)OCc2ccccc2)[C@@H](C)OC(=O)[C@H](Cc2ccc(OC)cc2)N(C)C(=O)[C@@H]2CCCN2C(=O)[C@H](CC(C)C)NC(=O)[C@@H](C)C(=O)[C@H](C(C)C)OC(=O)C[C@@H]1OC(=O)[C@H](CCC(N)=O)NC(=O)OCc1ccccc1 [Cbz-Gln[Cbz-GlnIst^2]DB (162)] yielded Cytotoxocity of 0
